Molecular target: Serine/threonine-protein kinase ULK1 (Homo sapiens) (UniProt O75385)
Sequence (O75385 whole entry, looked up): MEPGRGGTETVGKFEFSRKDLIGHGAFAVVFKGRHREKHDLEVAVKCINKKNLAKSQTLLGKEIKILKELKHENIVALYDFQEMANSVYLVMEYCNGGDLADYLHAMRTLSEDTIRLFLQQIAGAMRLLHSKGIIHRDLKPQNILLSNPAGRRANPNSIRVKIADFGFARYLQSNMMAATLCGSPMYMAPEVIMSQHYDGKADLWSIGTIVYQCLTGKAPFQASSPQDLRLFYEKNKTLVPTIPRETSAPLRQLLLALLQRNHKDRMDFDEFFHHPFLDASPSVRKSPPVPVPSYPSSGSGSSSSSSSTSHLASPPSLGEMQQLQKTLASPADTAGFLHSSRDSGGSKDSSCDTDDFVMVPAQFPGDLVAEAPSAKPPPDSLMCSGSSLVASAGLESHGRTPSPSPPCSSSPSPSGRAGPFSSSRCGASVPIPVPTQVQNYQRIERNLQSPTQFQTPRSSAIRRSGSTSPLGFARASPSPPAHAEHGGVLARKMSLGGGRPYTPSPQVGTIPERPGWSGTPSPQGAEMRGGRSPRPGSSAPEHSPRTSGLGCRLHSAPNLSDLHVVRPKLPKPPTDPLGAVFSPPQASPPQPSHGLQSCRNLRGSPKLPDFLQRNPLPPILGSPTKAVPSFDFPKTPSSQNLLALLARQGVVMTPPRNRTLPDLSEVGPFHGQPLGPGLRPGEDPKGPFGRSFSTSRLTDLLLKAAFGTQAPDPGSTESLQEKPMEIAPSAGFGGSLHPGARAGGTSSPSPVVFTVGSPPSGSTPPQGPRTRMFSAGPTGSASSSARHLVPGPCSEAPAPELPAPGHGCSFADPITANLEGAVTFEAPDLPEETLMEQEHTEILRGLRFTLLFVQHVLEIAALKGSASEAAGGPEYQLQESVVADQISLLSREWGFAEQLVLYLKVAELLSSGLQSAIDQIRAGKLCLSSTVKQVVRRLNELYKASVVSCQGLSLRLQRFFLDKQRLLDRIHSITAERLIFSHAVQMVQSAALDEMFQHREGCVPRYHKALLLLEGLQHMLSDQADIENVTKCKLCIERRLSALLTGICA
Experiment: inhibition of human autophagy kinase ULK1 – biochemical, AlphaScreen, primary screen (AID 1259251);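 note: 0% = median of compound wells and 100% = no enzyme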
Conditions: AlphaScreen Atg13 phosphorylation by ULK1, luminescence; at 5.96 µM; active compounds read high
About 580 (1.9%) of roughly 30,000 compounds were called active. The list comes from a sample in which actives are over-represented; it also holds close analogues and randomly drawn compounds.
recorded endpoint: inhibition (%)

[[record]]
molecule_smiles = "OCCNc1nc(Nc2ccccn2)nc2nc[nH]c12"
recorded_endpoint = "inhibition"
result = 8.19

[[record]]
molecule_smiles = "O=C(NCc1nc2ccccc2[nH]1)c1cccc(Nc2ncccn2)n1"
recorded_endpoint = "inhibition"
result = 10.3

[[record]]
molecule_smiles = "Cc1cccc(C(=O)NCc2ccccc2)c1N1CCC2(CC1)OCCO2"
recorded_endpoint = "inhibition"
result = 4.05

[[record]]
molecule_smiles = "O=C(NCCc1ccc(O)cc1)c1csc(Nc2cnccn2)n1"
recorded_endpoint = "inhibition"
result = 12.4

[[record]]
molecule_smiles = "CN1CCN(C(=O)c2ccc(-c3cc(NCc4cccc(C(F)(F)F)c4)ncn3)cc2)CC1"
recorded_endpoint = "inhibition"
result = -4.67

[[record]]
molecule_smiles = "O=C1CCCN1CCCNc1nc(Nc2cnccn2)nc2nc[nH]c12"
recorded_endpoint = "inhibition"
result = -13.6

[[record]]
molecule_smiles = "COc1cc2nc(Nc3ccc(-n4ccnc4)cc3)nc(Nc3cc(OC)c(OC)c(OC)c3)c2cc1OC"
recorded_endpoint = "inhibition"
result = -15.5

[[record]]
molecule_smiles = "CN1CCc2nc(NC(=O)c3ccc(Cl)cc3Cl)sc2C1"
recorded_endpoint = "inhibition"
result = -7.21

[[record]]
molecule_smiles = "COc1ccc(CCNc2nc(Nc3ncccn3)nc3c2ncn3CCN2CCCC2=O)cc1"
recorded_endpoint = "inhibition"
result = 27.6

[[record]]
molecule_smiles = "O=C(Nc1ccc2[nH]ncc2c1)c1ccnc(OC2CCN(Cc3ccccc3)CC2)c1"
recorded_endpoint = "inhibition"
result = -8.14

[[record]]
molecule_smiles = "Cc1cc(NCc2ccccc2)nc(N2CCN(Cc3ccc4c(c3)OCO4)CC2)n1"
recorded_endpoint = "inhibition"
result = -4.09

[[record]]
molecule_smiles = "O=C1CCCN1CCCNc1nc(-c2ccccc2)nc2nc[nH]c12"
recorded_endpoint = "inhibition"
result = 9.26

[[record]]
molecule_smiles = "CC(C)c1nc2ccc(-c3cn[nH]c3)cc2c(=O)[nH]1"
recorded_endpoint = "inhibition"
result = 69

[[record]]
molecule_smiles = "O=C1CCCN1CCCNc1nc(Nc2ccc3ncccc3c2)nc2nc[nH]c12"
recorded_endpoint = "inhibition"
result = 67.6

[[record]]
molecule_smiles = "c1ccc(N2CCN(c3nc(NCCN4CCOCC4)c4ncn(C5CCCCC5)c4n3)CC2)nc1"
recorded_endpoint = "inhibition"
result = -0.56


The reported measurements were obtained from PubChem BioAssay AID1259251.
